Here the recorded pIC50 is given for each entry.
tested on: CEM cells HIV-1 protection, formazan growth assay; assay: NCI AIDS Antiviral Assay; conditions: measured here: growth of uninfected CEM cells
pIC50: −log10 of the molar value.

[in] // Input: `COc1ccc(Cl)[c]([Bi]([c]2cc(OC)ccc2Cl)[c]2cc(OC)ccc2Cl)c1` . Output its pIC50 only.
[out] < 4.40

[in] // Input: `CN(C)c1ccc(-c2nc(-c3cc4c(ccc5ccccc54)oc3=O)cs2)cc1` . Output its pIC50 only.
[out] < 4.00

* * *

test system: CEM cells HIV-1 protection, formazan growth assay; test: NCI AIDS Antiviral Assay; conditions: measured here: growth of uninfected CEM cells
pIC50: −log10 of the molar value.
Here the recorded pIC50 is given for each entry.

Below: 2 compounds and their reported pIC50.
• CN1C2CCC1CC(O)C2 (stereo not drawn) = < 2.75
• C=C(C)C12CC3CC/C(=N/O)C(C1)C3(N1CCOCC1)C/C2=N/O (stereo not drawn) = < 3.70

[in] // Input: `COc1cc(C)c2c(c1C)OC(=O)c1c(C)c(Cl)c(O)c(C=O)c1O2` . Output its pIC50 only.
[out] < 4.31

* * *

system: CEM cells HIV-1 protection, formazan growth assay; experiment: NCI AIDS Antiviral Assay
Here the recorded EC50 is given for each entry.

Below: 2 compounds and their reported EC50.
- Cc1cn(C2CCC(CO)(C(F)(F)F)O2)c(=O)[nH]c1=O (stereo not drawn): > 200 µM
- Cc1ccc(/C(C#N)=C/c2ccc(N(C)C)cc2)cc1: > 200 µM

[in] // Input: CCC1(OC(=O)CNC)C(=O)OCc2c1cc1n(c2=O)Cc2cc3ccccc3nc2-1 (stereo not drawn) . Output its EC50 only.
[out] > 10 µM

* * *

System: CEM cells HIV-1 protection, formazan growth assay
Experiment: NCI AIDS Antiviral Assay
Conditions: measured here: growth of uninfected CEM cells
Description: The ability of compounds to protect human CEM cells from HIV-1 infection is measured as a screen for new compounds capable of inhibiting the HIV virus. Five concentrations of drug were tested on uninfected and infected cells and cell growth was measured using a soluble formazan assay. […] Compounds that provided at least 50% protection were retested. Compounds that provided at least 50% protection on retest were listed as moderately active. […]
property-label: IC50

Below: 8 compounds and their reported IC50.
• O=C1NN=C2CCCCCC12 (centres undefined) = > 589 µM
• C[C@]12CCC(=O)O[C@H]1CCCCO2 = > 200 µM
• c1ccc([C@H]2CN3CCSC3=N2)cc1 = > 200 µM
• COc1ccc2c(c1)CC1COc3cc(OC)ccc3C1O2 (centres undefined) = > 200 µM
• CC(=Nc1ccc([N+](=O)[O-])cc1)c1ccc(O)cc1 = 10.7 µM
• COc1ccc(C2S/C(=C\c3ccc(O)cc3)C(=O)N2NC(=O)Cc2ccccc2)cc1 (centres undefined) = > 112 µM
• CC(=O)Nc1ccc([As](=O)(O)O)cc1NC(C)=O = 28.2 µM
• CC(=O)c1sc(/N=C\c2c(O)c3ccccc3oc2=O)nc1C = 38.9 µM

Attention now turns to another entry.
[in] Provide IC50, system CEM cells HIV-1 protection, formazan growth assay, entry CCC(C)C(NC(=O)c1ccccc1SC(=O)CCCC[n+]1ccccc1)C(N)=O (centres undefined)
[out] 4.07 µM

Reference source for all entries: PubChem BioAssay AID179
